experimentalSetup: in isopropanol, 303.15 K
valueType: solubility (mole fraction)

INSERT INTO results (smilesentry, valuereported) VALUES
  ('Nc1cccc(Cl)c1C(=O)O', 0.0479);

====

experimentalSetup: in isopropanol, 288.15 K
valueType: solubility (mole fraction)

INSERT INTO results (smilesentry, valuetype, valuereported) VALUES
  ('Nc1cccc(Cl)c1C(=O)O', 'solubility (mole fraction)', 0.0276);

====

experimentalSetup: in cyclohexane, 298.15 K
valueType: solubility (mole fraction)

INSERT INTO assay_data (smilesentry, valuereported) VALUES
  ('Nc1cccc(Cl)c1C(=O)O', 0.000115);

====

experimentalSetup: in n-butanol, 293.15 K
valueType: solubility (mole fraction)

INSERT INTO results (smilesentry, valuereported) VALUES
  ('Nc1cccc(Cl)c1C(=O)O', 0.03);

====

experimentalSetup: in n-butanol, 308.15 K
valueType: solubility (mole fraction)

INSERT INTO measurements (smilesentry, valuereported) VALUES
  ('Nc1cccc(Cl)c1C(=O)O', 0.053);

====

experimentalSetup: in ethyl acetate, 313.15 K
valueType: solubility (mole fraction)

INSERT INTO assay_data (smilesentry, valuereported) VALUES
  ('Nc1cccc(Cl)c1C(=O)O', 0.0867);

====

experimentalSetup: in cyclohexane, 318.15 K
valueType: solubility (mole fraction)

INSERT INTO results (smilesentry, valuereported) VALUES
  ('Nc1cccc(Cl)c1C(=O)O', 0.000344);

====

experimentalSetup: in acetonitrile, 298.15 K
valueType: solubility (mole fraction)

INSERT INTO results (smilesentry, valuetype, valuereported) VALUES
  ('Nc1cccc(Cl)c1C(=O)O', 'solubility (mole fraction)', 0.0208);

====

experimentalSetup: in water, 323.15 K
valueType: solubility (mole fraction)

INSERT INTO assay_data (smilesentry, valuereported) VALUES
  ('Nc1cccc(Cl)c1C(=O)O', 0.00297);

====

experimentalSetup: in n-propanol, 283.15 K
valueType: solubility (mole fraction)

INSERT INTO measurements (smilesentry, valuetype, valuereported) VALUES
  ('Nc1cccc(Cl)c1C(=O)O', 'solubility (mole fraction)', 0.0248);

====

experimentalSetup: in ethanol, 293.15 K
valueType: solubility (mole fraction)

INSERT INTO measurements (smilesentry, valuereported) VALUES
  ('Nc1cccc(Cl)c1C(=O)O', 0.049);

====

experimentalSetup: in water, 298.15 K
valueType: solubility (mole fraction)

INSERT INTO results (smilesentry, valuetype, valuereported) VALUES
  ('Nc1cccc(Cl)c1C(=O)O', 'solubility (mole fraction)', 0.00116);

====

experimentalSetup: in n-octanol, 313.15 K
valueType: solubility (mole fraction)

INSERT INTO results (smilesentry, valuetype, valuereported) VALUES
  ('Nc1cccc(Cl)c1C(=O)O', 'solubility (mole fraction)', 0.0476);

====

experimentalSetup: in isobutanol, 313.15 K
valueType: solubility (mole fraction)

INSERT INTO assay_data (smilesentry, valuereported) VALUES
  ('Nc1cccc(Cl)c1C(=O)O', 0.057);
